meta.source: the supplement of paper PMC8967900

Tested on: MOLT-16
ASSAY NOTES: selective drug sensitivity score (sDSS, relative to normal bone marrow) (sDSS (score)); higher = more potent and effective on the cell line relative to normal bone marrow cells;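 note: ALL cell lines in 384-well plates, five doses spanning 10,000-fold, each plate scaled between vehicle and 100 µmol/L benzalkonium chloride controls, sDSS an adapted area-under-curve metric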
STATED CONDITIONS: 72 h
Hi, to clarify the labels: fulfilled covers selective drug sensitivity score from 4 upward, not fulfilled covers anything below 4.

1. Cc1cc([C@@H](C)Nc2ccccc2C(=O)O)c2nc(N3CCOCC3)cc(=O)n2c1 [AZD-6482] (top concentration 2500 nM)    not fulfilled
2. Cc1ccc(C(=O)Nc2ccc(CN3CCN(C)CC3)c(C(F)(F)F)c2)cc1C#Cc1cnc2cccnn12 [Ponatinib] (top concentration 1000 nM)    fulfilled
3. Cc1sc2c(c1C)C(c1ccc(Cl)cc1)=N[C@@H](CC(=O)Nc1ccc(OCCOCCOCCOCCNc3cccc4c3C(=O)N(C3CCC(=O)NC3=O)C4=O)cc1)c1nnc(C)n1-2 (some centres undefined) [ARV-825] (top concentration 300 nM)    not fulfilled
4. CC(C)(C)c1cc(NC(=O)Nc2ccc(-c3cn4c(n3)sc3cc(OCCN5CCOCC5)ccc34)cc2)no1 [Quizartinib] (top concentration 1000 nM)    not fulfilled
5. O=C(O)c1ccc(O)c2ncccc12 [IOX-1] (top concentration 100000 nM)    not fulfilled
6. COc1cc2nccc(Oc3ccc(NC(=O)C4(C(=O)Nc5ccc(F)cc5)CC4)cc3)c2cc1OC [Cabozantinib] (top concentration 1000 nM)    not fulfilled
7. CN1CCN(c2ccc(C(=O)Nc3n[nH]c4ccc(Cc5cc(F)cc(F)c5)cc34)c(NC3CCOCC3)c2)CC1 [Entrectinib] (top concentration 1000 nM)    not fulfilled
8. CN(C)C/C=C/C(=O)Nc1cc2c(Nc3ccc(F)c(Cl)c3)ncnc2cc1O[C@H]1CCOC1 [Afatinib] (top concentration 1000 nM)    not fulfilled
9. Cc1cc(Nc2cc(N3CCN(C)CC3)nc(Sc3ccc(NC(=O)C4CC4)cc3)n2)n[nH]1 [Tozasertib] (top concentration 10000 nM)    fulfilled

----------
Test system: ALL-SIL
ASSAY NOTES: selective drug sensitivity score (sDSS, relative to normal bone marrow) (sDSS (score)); higher = more potent and effective on the cell line relative to normal bone marrow cells
STATED CONDITIONS: 72 h
Hi, to clarify the labels: T covers selective drug sensitivity score from 5 upward, F covers anything below 5.

1. CC#CC(=O)N1CC[C@@H](n2c(=O)n(-c3ccc(Oc4ccccc4)cc3)c3c(N)ncnc32)C1 [Tirabrutinib] (top concentration 1000 nM)    F
2. Nc1cc(F)ccc1NC(=O)/C=C/c1cnn(C/C=C/c2ccccc2)c1 [RGFP966] (top concentration 10000 nM)    T
3. Cc1ccc(C(=O)Nc2ccc(CN3CCN(C)CC3)c(C(F)(F)F)c2)cc1C#Cc1cnc2cccnn12 [Ponatinib] (top concentration 1000 nM)    T
4. COc1cc2c(NC3CCN(C(C)C)CC3)nc(N3CCC(F)(F)CC3)nc2cc1OCCCN1CCCC1 [UNC0642] (top concentration 10000 nM)    F
5. Cc1cc(Nc2cc(N3CCN(C)CC3)nc(Sc3ccc(NC(=O)C4CC4)cc3)n2)n[nH]1 [Tozasertib] (top concentration 10000 nM)    T

----------
Test system: COG-LL-402h
ASSAY NOTES: selective drug sensitivity score (sDSS, relative to normal bone marrow) (sDSS (score)); higher = more potent and effective on the cell line relative to normal bone marrow cells
STATED CONDITIONS: 72 h
Entries and their measured selective drug sensitivity score follow.
ASSAY ENDPOINT: selective drug sensitivity score

1. CNC(=O)c1ccc(N2C(=S)N(c3ccc(C#N)c(C(F)(F)F)c3)C(=O)C2(C)C)cc1F [Enzalutamide] (top concentration 10000 nM)    0.68
2. CNC(=O)c1cc(COc2nnc(Nc3ccc(Cl)cc3)c3ccoc23)ccn1 [Telatinib] (top concentration 10000 nM)    0
3. COc1ccc(C[C@H](NC(=O)[C@H](C)NC(=O)CN2CCOCC2)C(=O)N[C@@H](Cc2ccccc2)C(=O)[C@@]2(C)CO2)cc1 [ONX-0914] (top concentration 10000 nM)    2
4. CN1CCN(c2ccc(C(=O)Nc3n[nH]c4ccc(Cc5cc(F)cc(F)c5)cc34)c(NC3CCOCC3)c2)CC1 [Entrectinib] (top concentration 1000 nM)    -0.7
5. NCCNc1ccc(NCCN)c2c1C(=O)c1ccncc1C2=O [Pixantrone] (top concentration 10000 nM)    -2.76
6. Cc1cc([C@@H](C)Nc2ccccc2C(=O)O)c2nc(N3CCOCC3)cc(=O)n2c1 [AZD-6482] (top concentration 2500 nM)    6.52
